test system: MDA-N; assay: Compound was tested in vitro for growth inhibition of MDA-N cells derived from human breast tumor; format: functional
Provide the reported log10 GI50 of each item.
Note: values are log10 of GI50 expressed in nM.

These solved cases illustrate the format of a correct answer.
O=S(=O)(Nc1ccc2c(c1)OCCO2)c1c(F)c(F)c(F)c(F)c1F; 1.60
O=S(=O)(Nc1ccc2[nH]ccc2c1)c1c(F)c(F)c(F)c(F)c1F; 1.32
CN(C)c1ccc(NS(=O)(=O)c2c(F)c(F)c(F)c(F)c2F)cc1; 1.48
COc1ccc(NS(=O)(=O)c2c(F)c(F)c(F)c(F)c2F)cc1; 1.61
Cc1ccc(NS(=O)(=O)c2c(F)c(F)c(F)c(F)c2F)cc1C; 2.09

Consider the record given below.
// query Can you share its log10 GI50? I mean this compound: COc1ccc(NS(=O)(=O)c2ccc(F)c(F)c2F)cc1
// result 3.15
